Target: Sentrin-specific protease 8 (Homo sapiens);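 also: luminescence read-out of SENP8 inhibition, dose-response confirmation following an ultra-high-throughput screen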
Sequence (Q96LD8 whole entry): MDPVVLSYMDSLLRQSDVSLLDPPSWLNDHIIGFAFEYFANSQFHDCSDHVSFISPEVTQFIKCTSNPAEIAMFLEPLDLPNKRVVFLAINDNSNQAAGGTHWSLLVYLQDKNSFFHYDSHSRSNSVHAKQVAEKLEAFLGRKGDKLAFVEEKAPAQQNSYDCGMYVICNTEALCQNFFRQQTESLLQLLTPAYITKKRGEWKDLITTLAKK
Format: functional
Activity calls are given as the source filed them.
Outcome codes: active, inactive

• Cc1cccc(OCc2cc(-c3ccccc3)no2)c1C = active
• CC(C)(C)c1ccc2c(c1)C(=O)c1ccccc1C2=O = inactive
• O=C1c2ccccc2-c2nnc(-c3ccc(F)cc3)cc21 = active
• Cc1ccccc1-c1nnc(-c2ccccc2C)o1 = active
• O=C(Cn1cc(SCc2ccc(Cl)cc2)c2ccccc21)N1CCOCC1 = inactive
• O=C(COc1ccc(Cc2ccccc2)cc1)c1ccc(F)cc1 = inactive

---

Assay: P. falciparum Dd2 growth inhibitors, dose response, SYBR Green, cherry-picked samples (AID 1159567)
Assay type: functional, cell-based
The source made the active and inactive calls.
observed_property: AC50

- CCc1nc(N2[C@H](C#N)[C@H](c3ccccc3-c3ccccc3F)[C@H]2CO)sc1C: 7.33 µM (active)
- COc1cccc(S(=O)(=O)N(C)C[C@@H]2OCc3ccccc3-c3c(n(C)c4ccccc34)C(=O)N([C@H](C)CO)C[C@@H]2C)c1: 0.832 µM (active)
- C[C@H]1CN([C@@H](C)CO)C(=O)Cc2cc(NC(=O)Nc3ccc(C(F)(F)F)cc3)ccc2O[C@@H]1CN(C)C(=O)Nc1ccc2c(c1)OCO2: 1.51 µM (active)
- O=C(Cc1cccnc1)N1CC[C@H]2[C@H](CO)Nc3ccc(C#Cc4cccc(F)c4)cc3[C@H]21: 6.12 µM (active)

---

Tested on: BJ
Experiment: cytotoxicity toward BJ-TERT fibroblasts, dose response, cell-based, RAS-independent, luminescence (AID 1933)
Format: functional
Details: Homo sapiens
Activity calls are given as the source filed them.
This section presents compounds with their documented EC50 values.
observed_property: EC50

• CC(C)c1cc(C(=O)N/N=C/C(Br)=C/c2ccccc2)[nH]n1 = 29.6 µM (active)
• COc1ccc(S(=O)(=O)N2CCOCC2)cc1NC(=O)CCNC(=O)c1ccc(Br)cc1 = > 150 µM (not active)
• COc1cc2ccccc2cc1C(=O)Nc1sc2c(c1C(N)=O)CCN(C(C)C)C2 = 6.33 µM (active)
• O=C(Cc1ccc(-c2ccccc2)cc1)NCc1ccccc1 = 0.385 µM (active)
• O=C(Cc1ccc([N+](=O)[O-])cc1)N/N=C/c1ccc([N+](=O)[O-])o1 = > 150 µM (not active)

---

Observed AC50 for Cytochrome P450 2D6 (Homo sapiens, UniProt P10635), reported per entry below.
observed_property: AC50

* COc1ccc(C(=O)CN2CCN(c3ccc(F)cc3)CC2)cc1OC | 25.1 µM (inconclusive)
* CC(=O)N1CCC2(CCCN(Cc3cc(C(F)(F)F)cc(C(F)(F)F)c3)C2)CC1 | 39.8 µM (inconclusive)
* Cc1ccc(S(=O)(=O)N2CCCC(C(=O)NCCCN3CCCCC3C)C2)cc1 (configuration not stated) | 17.8 µM (inconclusive)
* c1ccc(CN2CC[C@@]3(CCCNC3)C2)cc1 | 15.8 µM (inconclusive)
* COc1ccc(C(=O)N2CCC3(CC2)CN(Cc2ccc(C#N)cc2)C3)cc1 | 12.6 µM (inconclusive)
* CCNc1ncc2nc(-c3cccc(C#N)c3)c(=O)n(C)c2n1 | 2 µM (inconclusive)
* O=C(Cn1c(-c2cscn2)nc2ccccc21)Nc1cc(F)ccc1F | 22.4 µM (inconclusive)
* CCOc1cc(NC(=O)c2cccs2)c(OCC)cc1NC(=O)c1ccco1 | 0.708 µM (inconclusive)
* CC(=O)Nc1nnc(CCN2CCCCC2)s1 | 1.26 µM (inconclusive)
* C[C@H](N)C1CCC(C(=O)Nc2ccncc2)CC1 (some centres not stated) | 15.8 µM (inconclusive)
* O=C1C=CC(=O)c2c1ccc1c2ccc2ccccc21 | 5.01 µM (inconclusive)
* Cc1ccccc1-c1cncnc1Nc1ccccc1 | 39.8 µM (inconclusive)
